- PROCEDURE DETAILS: blockers of RIG-like receptor reporter activation – cell-based, Sendai virus stimulus, luciferase, 10K MLSCN set, TLR/RLR signaling modifier project, primary screen (AID 602276);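 note: firefly luciferase from ISG56 promoter only with Renilla not read in this screen; 0% = Sendai virus plus DMSO and 100% = medium plus DMSO without virus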
- SETTINGS: HEK293 RL24 IRF3 luciferase reporter, at 10 µM, stronger effect = higher value
Calls of active or inactive are those of the source.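 Rule for the calls: active = inhibition at or above 50% at 10 µM; inactive = inhibition below 50%.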
PARAMETER: inhibition

Use these answered entries as a reference point.
INSERT INTO measurements (compound, endpoint_result) VALUES
  ('CCC(NS(=O)(=O)c1ccc(C)cc1)C(=O)N1CCC2(O)CCCCC2C1 (stereo not drawn)', '0.0772% (inactive)'),
  ('Cc1ccc(-c2nnc(-c3ccc(Br)cc3)o2)o1', '-38.9% (inactive)');

Q. State the recorded inhibition for this entry: "CCCc1nc2ccccc2c(=O)n1NC(=O)c1c(O)c2cccc3c2n(c1=O)CCC3"
A. 7.44% (inactive)

====

nuclei count values by entry
- PROCEDURE DETAILS: reduction of polyQ htt aggregates in cells – imaging, exon1htt(103Q)mCFP cells, high-content imaging, primary screen (AID 483);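 note: compound exposure lasted 3 days before fixation; percent of the per-plate median nuclei count of sample wells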
- SETTINGS: exon1htt(103Q)mCFP cell line, aggregate imaging, at 2 µM; measured here: cell count, toxicity
Express the reported value numerically, then name its unit.

Use these answered entries as a reference point.
INSERT INTO results (molecule, endpoint_result) VALUES
  ('O=C1CCc2cc(OCCCCc3nnnn3C3CCCCC3)ccc2N1', '106%'),
  ('Cn1c(Cc2ccccc2)nnc1SCC(=O)NC1CCCCC1', '94.8%'),
  ('CC(C(=O)NC1CCCCCC1)N(c1ccccc1)S(C)(=O)=O (stereo unspecified)', '108%');

Q. State the recorded nuclei count for this entry: "COc1cc(-c2nc(-c3cccc(C(F)(F)F)c3)no2)cc(OC)c1OC"
A. 102%

Q. State the recorded nuclei count for this entry: CC(=O)NCC(=O)OC(C)C(=O)Nc1ccc(C(C)=O)cc1 (stereo unspecified)
A. 116%

Q. State the recorded nuclei count for this entry: CCC(C)(C)n1nnnc1C(c1ccccc1OC)N1CCSCC1 (stereo unspecified)
A. 106%

====

nuclei count values by entry
- PROCEDURE DETAILS: endothelial E-selectin expression blockers – imaging, HUVEC, immunofluorescence, MLSMR starter and 10KST1 sets, primary screen (AID 487);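 for nuclei count: 100% = median nuclei count of all wells on the same plate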
- SETTINGS: HUVEC TNFalpha-induced E-selectin immunofluorescence imaging, at 2 µM; measured here: cell number, toxicity
# value in %; strip the unit string

Use these answered entries as a reference point.
INSERT INTO assay_data (molecule, unit_abbreviation, endpoint_result) VALUES
  ('COc1cccc2c1C(=O)c1c(O)c3c(c(O)c1C2=O)C[C@@](O)(C(C)=O)C[C@@H]3O[C@H]1C[C@H](N)[C@H](O)[C@H](C)O1', '%', 84),
  ('CCn1c(=O)n(CC(=O)NCc2ccccc2OC)c(=O)c2ccccc21', '%', 92),
  ('CCCCNC(=O)NS(=O)(=O)c1ccc(C)cc1', '%', 107),
  ('CCOC(=O)C1=C(C)Nc2ncnn2C1c1ccccc1F (stereo not given)', '%', 102),
  ('CCN(CC)c1ccc2c(c1)CCCN2', '%', 126);

Q. State the recorded nuclei count for this entry: "COc1ccccc1N(CC(=O)NCc1ccccc1)S(C)(=O)=O"
A. 114

Q. State the recorded nuclei count for this entry: "Cc1cccn2c(=O)c3cc(C#N)c(=O)n(CCCN4CCOCC4)c3nc12"
A. 173

Q. State the recorded nuclei count for this entry: "NS(=O)(=O)c1cc2c(cc1Cl)NCNS2(=O)=O"
A. 102

Q. State the recorded nuclei count for this entry: "O=C(O)CCN1C(=O)c2ccccc2C1=O"
A. 107

Q. State the recorded nuclei count for this entry: "CCOC(=O)CCC(=O)Nc1ccc(S(=O)(=O)N2CCCC2)cc1"
A. 126

====

- PROCEDURE DETAILS: TLR3 IRF3 reporter activation blockers – cell-based, poly I:C stimulus, luciferase, 10K MLSCN set, primary screen (AID 602277)
- SETTINGS: HEK293-TLR3 RL24 IRF3 luciferase reporter, at 10 µM, stronger effect = higher value
PARAMETER: inhibition (%)
# value in %; strip the unit string

INSERT INTO measurements (molecule, endpoint_result) VALUES
  ('Cc1ccnc(NC(=O)CCC(=O)N(CC(=O)NC2CCCCC2)c2cccc(C)c2C)c1', 18.7);

Q. State the recorded inhibition for this entry: "C=CCNC(=O)CNS(=O)(=O)c1ccc(F)cc1"
A. 45.8

Q. State the recorded inhibition for this entry: "COc1ccc(-n2c(SCC(=O)Nc3ccc(C(=O)O)cc3)nnc2-c2cccs2)cc1"
A. 6.83

Q. State the recorded inhibition for this entry: "O=c1c(O)c(-c2ccc(O)cc2O)oc2cc(O)cc(O)c12"
A. 29.6

Q. State the recorded inhibition for this entry: "Cc1ccc(-n2ncc3c(Nc4c(C)n(C)n(-c5ccccc5)c4=O)ncnc32)c(C)c1"
A. 12.5

Q. State the recorded inhibition for this entry: COCC(=O)Nc1sc2c(c1C(=O)OC)CCC(C)C2 (stereo unspecified)
A. -17

Q. State the recorded inhibition for this entry: "c1ccc(CNC2=NCCC2)nc1"
A. 10.1

Q. State the recorded inhibition for this entry: CCCC(C)C1C(C#N)=C(N)Oc2cc(C)oc(=O)c21 (stereo unspecified)
A. 18.7

Q. State the recorded inhibition for this entry: CCCC(=O)N=C1SC2CS(=O)(=O)CC2N1c1ccc(CC)cc1 (stereo unspecified)
A. 24.6

Q. State the recorded inhibition for this entry: "CC(C)CCn1c(SCC#N)nc2c(sc3ccccc32)c1=O"
A. 14.8

Q. State the recorded inhibition for this entry: "Cc1cccc(N2CN=c3s/c(=C\c4ccncc4)c(=O)n3C2)c1"
A. -3.47

====

- PROCEDURE DETAILS: reduction of polyQ htt aggregates in cells – imaging, exon1htt(103Q)mCFP cells, high-content imaging, primary screen (AID 483);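 note: compound exposure lasted 3 days before fixation; percent of the per-plate median nuclei count of sample wells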
- SETTINGS: exon1htt(103Q)mCFP cell line, aggregate imaging, at 2 µM; measured here: cell count, toxicity
PARAMETER: nuclei count (%)
# value in %; strip the unit string

Use these answered entries as a reference point.
INSERT INTO measurements (molecule, endpoint_result) VALUES
  ('Cc1nc2ccccc2cc1C(=O)NCc1ccco1', 75.3),
  ('Cc1ccc(C)c(SCC(=O)Nc2nnc(-c3ccccc3)o2)c1', 99.9),
  ('Cc1ccc(OCC(=O)N2CCN(C(=O)CCC3CCCC3)CC2)cc1', 84.9),
  ('Cc1cccc(C(=O)N2CCN(C(=O)c3cccc(C)c3)C(C)C2)c1 (stereo not given)', 113),
  ('Nc1ncnc2nc(SCCN3CCCCC3)[nH]c12', 90.8),
  ('CCOC(=O)CN(C)Cc1c[nH]c2ccccc12', 93.9);

Q. State the recorded nuclei count for this entry: "COCCOc1nc2ccccc2nc1C"
A. 87.8

Q. State the recorded nuclei count for this entry: "CC(=O)O[C@]1(C(C)=O)CC[C@H]2[C@@H]3C=C(Cl)C4=CC(=O)CC[C@]4(C)[C@H]3CC[C@@]21C"
A. 100

Q. State the recorded nuclei count for this entry: "CCOc1ccc(NC(=O)CSc2nnnn2CC(=O)O)cc1"
A. 112

====

- PROCEDURE DETAILS: TLR3 IRF3 reporter activation blockers – cell-based, poly I:C stimulus, luciferase, 10K MLSCN set, primary screen (AID 602277)
- SETTINGS: HEK293-TLR3 RL24 IRF3 luciferase reporter, at 10 µM, stronger effect = higher value
PARAMETER: inhibition (%)
# value in %; strip the unit string

INSERT INTO assay_data (compound, parameter, unit_abbreviation, endpoint_result) VALUES
  ('O=C(Cc1ccsc1-c1ccccc1)NO', 'inhibition', '%', 11.3),
  ('CCOC(=O)N1CCN(C(=O)Nc2ccc(Cl)cc2)CC1', 'inhibition', '%', 3.42);

Q. State the recorded inhibition for this entry: "Cc1cnc(C(=O)Nc2ccc(-n3cnnn3)cc2)cn1"
A. -4.35

Q. State the recorded inhibition for this entry: "O=C(Nc1ccc(Cl)cc1C(=O)Nc1ccncc1)c1ccco1"
A. 28.5

Q. State the recorded inhibition for this entry: "CCn1cc(C(=O)Nc2cc3c(cc2NC(C)=O)OCCO3)c(=O)c2ccc(C)nc21"
A. 16.9

Q. State the recorded inhibition for this entry: "CCOCCCNC(=O)C1CCN(C(=O)Nc2ccc(Cl)cc2)CC1"
A. 21.5

Q. State the recorded inhibition for this entry: Cc1ccccc1N(CC(=O)NCC1CCCO1)C(=O)C1(C)CC(=O)N=C2C=CC=CN21 (configuration not stated)
A. 1.93

====

inhibition values by entry
- PROCEDURE DETAILS: endothelial E-selectin expression blockers – imaging, HUVEC, immunofluorescence, MLSMR starter and 10KST1 sets, primary screen (AID 487);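 for inhibition: signal is fraction of cell area covered by stained E-selectin grains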
- SETTINGS: HUVEC TNFalpha-induced E-selectin immunofluorescence imaging, at 2 µM; stronger effect = higher value
# value in %; strip the unit string

Use these answered entries as a reference point.
INSERT INTO assay_data (molecule, unit_abbreviation, endpoint_result) VALUES
  ('CCOC(=O)C(CC)(CCC(=O)O)c1csc(N)n1 (configuration not stated)', '%', 14.4),
  ('Cc1ccccc1N1CC(c2nc3ccccc3[nH]2)CC1=O (configuration not stated)', '%', -7.2),
  ('Cn1c2ccccc2c2c(C(=O)NCCCN3CCCC3=O)cn(C3CCCCC3)c(=O)c21', '%', 20.1),
  ('CCOc1ccc2c(c1)sc1nc(C(=O)OC)cc(=O)n12', '%', -0.5);

Q. State the recorded inhibition for this entry: COc1ccc(OC)c(C2=NOC(C(=O)NCCN3CCOCC3)C2)c1 (configuration not stated)
A. -20.4

Q. State the recorded inhibition for this entry: "CCCCN(CCCNC(=O)C1CCN(S(=O)(=O)CC)CC1)c1ccccc1"
A. -81.6

Q. State the recorded inhibition for this entry: CC(C(=O)NCCCN1CCOCC1)n1cccc1C(=O)c1ccccc1 (configuration not stated)
A. -1.5

Q. State the recorded inhibition for this entry: "O=C(O)CCCC(=O)Nc1ccc(Br)cc1C(=O)O"
A. 12.5

Q. State the recorded inhibition for this entry: COc1cc(C2C(C#N)=C(N)OC3=C2C(=O)CCC3)ccc1OC(=O)N1CCOCC1 (configuration not stated)
A. -20.8

Q. State the recorded inhibition for this entry: "COC(=O)COc1ccc(S(=O)(=O)NCCC2=CCCCC2)cc1"
A. -31.4

Q. State the recorded inhibition for this entry: "Cn1c(Cc2csc(N)n2)nnc1SCC(=O)NC1CCCCC1"
A. 16.6

Q. State the recorded inhibition for this entry: "CCOC(=O)c1cccc(NC(=O)CSc2nnc(-c3ccoc3C)n2CCOC)c1"
A. -140

Q. State the recorded inhibition for this entry: COc1ccc(N2CCN(C(c3cccc(OC)c3OC)c3nnnn3C3CCCC3)CC2)cc1 (configuration not stated)
A. 36.9

Q. State the recorded inhibition for this entry: "Nc1nonc1NC(=O)CSc1nc2ccccc2s1"
A. -50.5

Q. State the recorded inhibition for this entry: "CCOc1ccc(NC(=O)CN(C)S(=O)(=O)c2cccs2)cc1"
A. -22.6

Q. State the recorded inhibition for this entry: "Cc1nc(C)c(C(=O)Nc2ccc(Oc3ccccc3)cc2)o1"
A. -128

Q. State the recorded inhibition for this entry: "Clc1cccc(-c2nn3c(Cn4cnc5ccccc54)nnc3s2)c1"
A. -92.1

Q. State the recorded inhibition for this entry: "CCOc1cccc(OCCOCCN2CCCC2)c1"
A. -29.7

Q. State the recorded inhibition for this entry: "COc1ccc(CNc2nc3nc(C)cc(C)n3n2)cc1OC"
A. -5.7

Q. State the recorded inhibition for this entry: Cn1c(C(=O)NCC2CCCO2)cc2c(=O)[nH]c3ccccc3c21 (configuration not stated)
A. 47.5

Q. State the recorded inhibition for this entry: "COc1cccc(-c2cc(C(=O)Nc3cc(C)n(Cc4ccc(Cl)cc4)n3)no2)c1"
A. 38.9

Q. State the recorded inhibition for this entry: "O=C1CCCc2c1cc(C(=O)NCc1ccco1)c(=O)n2-c1ccc(Cl)cc1"
A. 37.1

Q. State the recorded inhibition for this entry: "O=C(Cc1ccc(Br)cc1)N1CCCCCC1"
A. -68.6

Q. State the recorded inhibition for this entry: "O=C(O)c1ccc(-n2nnnc2Oc2ccccc2C(=O)N2CCOCC2)cc1"
A. 2.2

Q. State the recorded inhibition for this entry: "CCOc1ccc(OCc2cccc(C(=O)O)c2)cc1"
A. -68

Q. State the recorded inhibition for this entry: "O=C(COc1ccccc1Cl)OCC(=O)N1CCN(S(=O)(=O)c2ccccc2)CC1"
A. -107

Q. State the recorded inhibition for this entry: "O=C(c1ccc(Cl)cc1)C1CCN(C(=O)NC2CCCCC2)CC1"
A. -37.3
